- TESTED TARGET: Neurogenic locus notch homolog protein 3 (Homo sapiens)
- ASSAY TEXT: NOTCH3 binders on small-molecule microarray, primary screen, biochemical, 635/667 nm fluorescence (AID 1096)
- EXPERIMENTAL PARAMETERS: NOTCH3 binding, 635 nm fluorescence, higher = more signal
Please mark rule met if the recorded composite z-score is equal to or greater than 0.4, and rule not met if it falls below.

Check if composite z-score >= 0.4 (inclusive). Item: CN1C(=O)C2C=CC(C(O)c3ccccn3)N(N(c3ccccc3)c3ccccc3)C2C1=O (stereo unspecified)
rule not met

Follow-up item: COC(=O)[C@H](Cc1ccccc1)N1CC(/C=C/C2CC2)=C[C@H]1[C@H](O)Cc1ccccc1
rule met

Likewise for OCC1CC(c2ccccc2)=NO1 (stereo unspecified) ?
rule not met

Next molecule: Cc1ccc(S[C@]2(C(=O)NCC(F)(F)F)CC(=O)N(C3CCCCC3)[C@@H]2c2ccc(CO)cc2I)cc1
rule met

One more molecule: COc1ccc(-c2cc3c(c(CCc4ccccc4)n2)[Si](C(C)C)(C(C)C)OC3)cn1
rule not met

Try C[C@H]1NC(=O)[C@@]23C(=O)N[C@@H](Cc4ccccc4)C2[C@H](C)[C@@]2(C)O[C@H]2C3/C=C/C/C=C\CNC(=O)[C@H](Cc2ccccc2)NC1=O (stereo partly specified) next.
rule met

Next molecule: C=CC[C@]1(C(=O)NCCN2CCOCC2)N=C(c2ccc(OCCCO)cc2)O[C@H]1c1ccccc1CN=[N+]=[N-]
rule not met

Now this one: CCCC[C@@H](O)C1=C(COc2ccccc2)C[C@H]2C(=O)N(C)C(=O)[C@H]2[C@H]1CO
rule not met

Then what about the molecule CCOC(=O)C[C@H]1[C@H](OC(=O)c2ccccc2-c2ccccc2)[C@@H](NC(=O)c2ccc(-c3ccccc3)cc2)c2cc(OCCCO)ccc2N1C(=O)c1ccc2ccccc2n1 ?
rule met

What do you have for NC(=O)NCC#Cc1ccc2c(c1)[C@]1(C(=O)N2)[C@H](C(=O)O)[C@H]2C(=O)O[C@H](c3ccccc3)[C@H](c3ccccc3)N2[C@@H]1c1ccc(OCCO)cc1 ?
rule not met

Please do the same for [N-]=[N+]=Nc1ccccc1[C@@H]1OC(c2ccc(OCCCO)cc2)=N[C@]1(Cc1ccccc1)C(=O)NCC(O)CO (stereo partly specified) as well.
rule not met

Try COc1ccccc1CN1C(=O)c2ccccc2[C@@]2(Cc3ccccc3N(CC(F)(F)F)C2=O)[C@@H]1c1ccc(CO)cc1 next.
rule met

Same again, this time with C=C(C)C1CCC(C(O)C2C=CC3C(=O)N(C)C(=O)C3N2N2CCCCC2)CC1 (stereo unspecified)
rule met

Note, next up: N#Cc1ccc(NN2C(C(O)c3ccc(F)cc3)C=CC3C(=O)N(c4ccccc4)C(=O)C32)cc1 (stereo unspecified)
rule met

Lookup COC(=O)[C@@]1(Cc2ccc(OC)cc2)[C@H]2c3cc(C(=O)N(C)C)n(C[C@H](O)CO)c3C[C@H]2CN1C(=O)c1ccccc1
rule met

* * *

Kindly state z-score for each of the entries shown.
- ASSAY TEXT: basal MM1S mitochondrial membrane potential changes, profiling panel, cell-based, JC-1 fluorescence, 24 h, 100 nL compound (AID 1170); also: test concentration not given here
- EXPERIMENTAL PARAMETERS: higher = more signal
The response must contain the number and no unit.

Data request, read-out z-score, for CN(C)CCCNC(=O)[C@@]1(c2ccc([N+](=O)[O-])cc2)CC(=O)N(CC23CC4CC(CC(C4)C2)C3)[C@@H]1c1ccc(CO)cc1I
-2.37

Here is the next compound: COc1ccc(-c2nc(-c3ccccc3)c3c(c2C)CO[Si]3(C(C)C)C(C)C)cn1
-0.294

Entry to check: COC(=O)C(CC#Cc1ccc2c(c1)[C@]1(C(=O)N2)[C@H](C(=O)N2CCN(c3ncccn3)CC2)[C@H]2C(=O)O[C@H](c3ccccc3)[C@H](c3ccccc3)N2[C@@H]1c1ccc(OCCO)cc1)C(=O)OC
-1.44

[N-]=[N+]=NCc1ccccc1[C@H]1OC(c2ccc(OCCCO)cc2)=N[C@@]1(CCS(=O)(=O)c1ccccc1)C(=O)N1CCCCC1 , same question.
-1.11

Field entry: COc1ccc([Si](C)(C)[C@@H]2[C@@H](CC(=O)N(CCO)Cc3ccccc3)O[C@]3(C(=O)N(c4ccccc4)c4ccccc43)[C@H]2C)cc1
-2.3

Another compound: CC(C)Cc1ccc(CN2CC[C@@H](NC(=O)Nc3ccccc3)C2)cc1
-3.26

Input CN1C(=O)C2C=CC(C(O)c3ccc(F)cc3)N(Nc3ccccc3)C2C1=O (configuration not stated)
0.431

Next compound: CCCC[C@@H]1C[C@H]1[C@@H](NC(=O)c1ccccc1)c1ccc(C(F)(F)F)cc1
-1.24

Same thing, different compound: CCCC[C@@H](O)C1=C(COc2ccccc2)C[C@H]2C(=O)N(C)C(=O)[C@H]2[C@H]1CO
-2.03

Param item: CCOC(=O)C[C@H]1[C@H](OC(=O)Cc2ccc3c(c2)OCO3)[C@@H](NC(=O)CC(C)C)c2cc(OCCCO)ccc2N1C(=O)Cc1ccc(OC)cc1
-0.19

What about this compound? Cc1ccc(S[C@]2(C(=O)NCCCN(C)C)CC(=O)N(C3CCCCC3)[C@@H]2c2ccc(CO)cc2)cc1
-0.528

Again, but for CC(C)C(CO)N1C(=O)[C@@H]2C3C(=O)OCCC/C=C\[C@H]3OC23C=CCN(C(C)(C)C)C(=O)[C@@H]13 (some centres not stated)
-0.351

// same read-out, input: C[N+](C)(C)CCCC[C@@H]1NC(=O)[C@H]2C[C@@H](C(=O)NCCCCCCN)[C@@H](c3ccc(O)cc3)N2C1=O
0.596

// next record COc1cc2c(cc1OC)CN(C(=O)[C@@H]1[C@H]3C(=O)O[C@H](c4ccccc4)[C@H](c4ccccc4)N3[C@H](c3ccc(OCCO)cc3)[C@@]13C(=O)Nc1ccccc13)CC2
-1.17

Now the same for CC(CO)N1C(=O)[C@@H]2[C@H]3C(=O)OCC=C[C@H]3OC23C=CCN(C(C)(C)C)C(=O)[C@@H]13 (some centres not stated)
0.0965

Record: [N-]=[N+]=NCc1ccccc1[C@H]1OC(c2ccc(OCCCO)cc2)=N[C@@]1(CCS(=O)(=O)c1ccccc1)C(=O)NCC(O)CO (some centres not stated)
-1.78

Query COc1ccc([Si](C)(C)[C@H]2[C@H](CC(=O)N(CCO)Cc3ccccc3)O[C@@]3(C(=O)N(Cc4cccc(N5CCOC5=O)c4)c4ccccc43)[C@@H]2C)cc1 next
-1.56

Sourced from PubChem BioAssay
